Assay Target: human TLR7 (Homo sapiens)
Construct: host or cells: HEK293-Blue-hTLR-7 (HEK293)
Sequence (Q9NYK1 27-1049): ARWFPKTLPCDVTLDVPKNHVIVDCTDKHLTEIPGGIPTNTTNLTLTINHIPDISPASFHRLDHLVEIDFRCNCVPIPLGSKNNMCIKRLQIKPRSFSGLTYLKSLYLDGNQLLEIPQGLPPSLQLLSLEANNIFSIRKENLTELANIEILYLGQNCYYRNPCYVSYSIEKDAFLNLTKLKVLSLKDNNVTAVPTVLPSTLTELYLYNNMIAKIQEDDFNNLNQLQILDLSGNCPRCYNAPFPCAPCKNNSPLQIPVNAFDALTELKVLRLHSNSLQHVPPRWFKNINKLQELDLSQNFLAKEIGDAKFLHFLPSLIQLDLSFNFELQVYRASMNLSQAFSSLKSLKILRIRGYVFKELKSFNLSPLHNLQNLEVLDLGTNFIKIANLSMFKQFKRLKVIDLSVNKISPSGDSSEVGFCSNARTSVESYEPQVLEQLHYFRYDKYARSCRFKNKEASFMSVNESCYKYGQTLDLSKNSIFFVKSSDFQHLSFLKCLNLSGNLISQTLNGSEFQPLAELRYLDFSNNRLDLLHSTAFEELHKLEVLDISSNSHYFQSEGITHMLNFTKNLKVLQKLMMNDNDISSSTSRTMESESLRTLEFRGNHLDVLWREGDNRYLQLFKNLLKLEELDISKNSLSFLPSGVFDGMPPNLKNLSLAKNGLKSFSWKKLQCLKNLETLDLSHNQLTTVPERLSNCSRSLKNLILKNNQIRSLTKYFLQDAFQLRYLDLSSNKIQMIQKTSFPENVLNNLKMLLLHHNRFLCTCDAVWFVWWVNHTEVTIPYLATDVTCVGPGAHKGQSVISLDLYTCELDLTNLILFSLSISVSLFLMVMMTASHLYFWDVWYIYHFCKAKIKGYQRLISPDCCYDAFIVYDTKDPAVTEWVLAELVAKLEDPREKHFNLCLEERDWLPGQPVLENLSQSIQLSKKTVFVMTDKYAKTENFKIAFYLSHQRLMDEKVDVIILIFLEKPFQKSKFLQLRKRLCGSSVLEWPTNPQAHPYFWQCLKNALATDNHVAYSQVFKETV
Run Description: HEK293-Blue-hTLR-7 cells assay
Assay type: cell-based
Run Conditions: HEK293-Blue-hTLR7 cells, R848 stimulation, 20 hrs, SEAP reporter; read-out: HEK/hTLR7 IC50
pIC50: −log10 of the molar value.
Result Type: pIC50

(1) C[C@@H]1CN(c2ccc(C#N)c3ncccc23)C[C@H](CN2CC3(C2)CN(c2ccnc(C(C)(C)O)c2)C3)O1
(2) Cc1cc(N(C)C2CN(C[C@H]3CN(c4ccc(C#N)c5ncccc45)C[C@@H](C)O3)C2)cc(C)n1
Sorting ascending by pIC50, which comes first: 1 or 2 ? Give the label under which the chosen entry appears. 1
(1: 7.26, 2: 8.10)

----------
Assay Target: CYP2D6 (Homo sapiens)
Construct: tissue BD-Gentest 452117; host or cells: human liver microsomes
Sequence (P10635 whole entry): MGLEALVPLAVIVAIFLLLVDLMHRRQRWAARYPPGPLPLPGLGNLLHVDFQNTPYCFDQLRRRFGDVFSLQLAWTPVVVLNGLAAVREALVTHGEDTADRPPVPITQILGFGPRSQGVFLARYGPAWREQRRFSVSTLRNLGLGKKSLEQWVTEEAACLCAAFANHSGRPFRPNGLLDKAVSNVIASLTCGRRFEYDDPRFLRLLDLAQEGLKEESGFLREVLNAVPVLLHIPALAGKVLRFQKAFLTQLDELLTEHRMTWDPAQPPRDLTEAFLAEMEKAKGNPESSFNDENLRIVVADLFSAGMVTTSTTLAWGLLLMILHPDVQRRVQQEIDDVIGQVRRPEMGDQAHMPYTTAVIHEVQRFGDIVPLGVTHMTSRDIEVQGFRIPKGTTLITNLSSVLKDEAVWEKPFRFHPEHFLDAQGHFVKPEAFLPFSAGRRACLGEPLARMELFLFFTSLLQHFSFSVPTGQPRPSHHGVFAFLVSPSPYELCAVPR
Run Description: CYP inhibition assay in human liver microsome
Format: in vitro ADME
Run Conditions: human liver microsomes, probe dextromethorphan, dextromethorphan substrate, percentage inhibition <0: not or weak inhibitor, read-out: CYP 2D6 inhibition %@10 μM
Result Type: inhibition at 10 min, 10 μM (%)

{"Molecule": "Cc1cc(NC2CCN(C[C@H]3CN(c4ccc(C#N)c5ncccc45)C[C@@H](C)O3)C2)cc(CO)n1 (some centres unmarked) [Example 6]", "inhibition at 10 min, 10 μM / %": 8}
{"Molecule": "Cc1cc(N2CCC[C@H](N(C)C[C@H]3CN(c4ccc(C#N)c5ncccc45)C[C@@H](C)O3)C2)cc(CO)n1 [Example 38]", "inhibition at 10 min, 10 μM / %": 0}
{"Molecule": "Cc1cc(N2CCC23CN(C[C@H]2CN(c4ccc(C#N)c5ncccc45)C[C@@H](C)O2)C3)ccn1 [Example 15]", "inhibition at 10 min, 10 μM / %": 4}

(P) Cc1cc(N2CCOC3(CN(C[C@H]4CN(c5ccc(C#N)c6ncccc56)C[C@@H](C)O4)C3)C2)ccn1 [Example 16]
(Q) Cc1cc(N2CCN(C[C@H]3CN(c4ccc(C#N)c5ncccc45)C[C@@H](C)O3)CC2)cc(N)n1 [Example 40]
(R) Cc1cc(N(C)C2CN(C[C@H]3CN(c4ccc(C#N)c5ncccc45)C[C@@H](C)O3)C2)cc(C)n1 [Example 11]
(S) Cc1cc(NC2CCN(C[C@H]3CN(c4ccc(C#N)c5ncccc45)C[C@@H](C)O3)CC2)cc(CO)n1 [Example 5]
(T) Cc1cc(C2CCN(C[C@H]3CN(c4ccc(C#N)c5ncccc45)C[C@@H](C)O3)CC2)cc(N)n1 [Example 43]
Arrange items by their inhibition at 10 min, 10 μM values in increasing order. List labels; respect the requested ordering. T, R, P, S, Q
(T: -13%, R: -7.5%, P: 5%, S: 7.5%, Q: 14.5%)

(a) Cc1cc(N2CC3(CN(C[C@H]4CN(c5ccc(C#N)c6ncccc56)C[C@@H](C)O4)C3)C2)cc(C(C)O)n1 (some centres unmarked) [Example 44]
(b) CC(O)c1cc(N2CC3(CN(C[C@H]4CN(c5ccc(C#N)c6ncccc56)C[C@@H](C)O4)C3)C2)ccn1 (some centres unmarked) [Example 46]
(c) Cc1cc(N2CCN(C[C@H]3CN(c4ccc(C#N)c5ncccc45)C[C@@H](C)O3)CC2)cc(CO)n1 [Example 50]
Could you please sort these 3 entries by inhibition at 10 min, 10 μM from high to low? List labels; respect the requested ordering. b, c, a

----------
Assay Target: hTLR9 (Homo sapiens)
Run Description: HEK293-Blue-hTLR-9 cells assay
Format: cell-based
Set-up: host or cells: HEK293-Blue-hTLR-9 (HEK293)
Run Conditions: HEK293-Blue-hTLR9 cells, ODN2006 stimulation, 20 hrs, SEAP reporter; read-out: HEK/hTLR9 IC50
Result Type: IC50 (nM)

Known results for molecules:
{"Molecule": "C[C@@H]1CN(c2ccc(C#N)c3ncccc23)C[C@H](CN[C@H]2CCCN(c3ccnc(N)c3)C2)O1", "Units Of Measure": "nM", "IC50": 34}
{"Molecule": "C[C@@H]1CN(c2ccc(C#N)c3ncccc23)C[C@H](CNC2CCN(c3ccnc(N)c3)CC2)O1", "Units Of Measure": "nM", "IC50": 36}
{"Molecule": "Cc1cc(N2CC[C@@H](F)[C@H](NC[C@H]3CN(c4ccc(C#N)c5ncccc45)C[C@@H](C)O3)C2)cc(CO)n1", "Units Of Measure": "nM", "IC50": 155}

(a) Cc1cc(N2CCOC3CN(CC4CN(c5ccc(C#N)c6ncccc56)CC(C)O4)CC32)cc(C)n1 (single isomer, unassigned) [Example 17A]
(b) C[C@@H]1CN(c2ccc(C#N)c3ncccc23)C[C@H](CN2CCN(c3cc(N)nc(CO)c3)CC2)O1
Sorting ascending by IC50, which comes first: a or b ? Give the label under which the chosen entry appears. b

(I) Cc1cc(NC2CCN(C[C@H]3CN(c4ccc(C#N)c5ncccc45)C[C@@H](C)O3)CC2)cc(CO)n1
(II) Cc1cc(N2CC(NC[C@H]3CN(c4ccc(C#N)c5ncccc45)C[C@@H](C)O3)CC(F)(F)C2)cc(CO)n1 (stereo partly shown)
(III) Cc1cc(N2CCN(C[C@H]3CN(c4ccc(C#N)c5ncccc45)C[C@@H](C)O3)[C@@H](C)C2)cc(CO)n1
Could you please sort these 3 entries by IC50 from high to low? List labels; respect the requested ordering. II, III, I

(I) C[C@@H]1CN(c2ccc(C#N)c3ncccc23)C[C@H](CN2CC3(C2)CN(c2ccnc(CO)c2)CCO3)O1
(II) C[C@@H]1CN(c2ccc(C#N)c3ncccc23)C[C@H](CN2CC3(C2)CN(c2ccnc(C(C)(C)O)c2)C3)O1
Among I and II , which shows a numerically higher IC50 result? Give the label under which the chosen entry appears. II

----------
Assay Target: UniProt:Q9NYK1
Run Description: HEK293-Blue-hTLR-7 cells assay
Run Conditions: HEK293-Blue-hTLR7 cells, R848 stimulation, 20 hrs, SEAP reporter; read-out: HEK/hTLR7 IC50
Description: The following tests were carried out in order to determine the activity of the compounds of formula (I) and (Ia) in HEK293-Blue-hTLR-7/8/9 cells assay. HEK293-Blue-hTLR-7 cells assay: A stable HEK293-Blue-hTLR-7 cell line was purchased from InvivoGen (Cat. #: hkb-htlr7, San Diego, Calif., USA). These cells were originally designed for studying the stimulation of human TLR7 by monitoring the activation of NE-κB. […]
pIC50: −log10 of the molar value.
Result Type: pIC50

{"Compound": "Cc1cc(N2CC(N(C)C[C@H]3CN(c4ccc(C#N)c5ncccc45)C[C@@H](C)O3)C2)cc(CO)n1", "Numeric Readout": 7.47}

(1) Cc1cc(N2C[C@H]3CN(C[C@H]4CN(c5ccc(C#N)c6ncccc56)C[C@@H](C)O4)C[C@H]3C2)cc(CO)n1
(2) Cc1cc(N2CCC[C@H](N(C)C[C@H]3CN(c4ccc(C#N)c5ncccc45)C[C@@H](C)O3)C2)cc(CO)n1
(3) Cc1cc(N2CCOC3CN(CC4CN(c5ccc(C#N)c6ncccc56)CC(C)O4)CC32)cc(C)n1 (single isomer, unassigned) [Example 17B]
Could you please sort these 3 entries by pIC50 from high to low? List labels; respect the requested ordering. 3, 2, 1
(3: 7.96, 2: 7.46, 1: 7.24)

----------
Assay Target: hTLR9 (Homo sapiens, UniProt Q9NR96)
Sequence (Q9NR96 26-1032): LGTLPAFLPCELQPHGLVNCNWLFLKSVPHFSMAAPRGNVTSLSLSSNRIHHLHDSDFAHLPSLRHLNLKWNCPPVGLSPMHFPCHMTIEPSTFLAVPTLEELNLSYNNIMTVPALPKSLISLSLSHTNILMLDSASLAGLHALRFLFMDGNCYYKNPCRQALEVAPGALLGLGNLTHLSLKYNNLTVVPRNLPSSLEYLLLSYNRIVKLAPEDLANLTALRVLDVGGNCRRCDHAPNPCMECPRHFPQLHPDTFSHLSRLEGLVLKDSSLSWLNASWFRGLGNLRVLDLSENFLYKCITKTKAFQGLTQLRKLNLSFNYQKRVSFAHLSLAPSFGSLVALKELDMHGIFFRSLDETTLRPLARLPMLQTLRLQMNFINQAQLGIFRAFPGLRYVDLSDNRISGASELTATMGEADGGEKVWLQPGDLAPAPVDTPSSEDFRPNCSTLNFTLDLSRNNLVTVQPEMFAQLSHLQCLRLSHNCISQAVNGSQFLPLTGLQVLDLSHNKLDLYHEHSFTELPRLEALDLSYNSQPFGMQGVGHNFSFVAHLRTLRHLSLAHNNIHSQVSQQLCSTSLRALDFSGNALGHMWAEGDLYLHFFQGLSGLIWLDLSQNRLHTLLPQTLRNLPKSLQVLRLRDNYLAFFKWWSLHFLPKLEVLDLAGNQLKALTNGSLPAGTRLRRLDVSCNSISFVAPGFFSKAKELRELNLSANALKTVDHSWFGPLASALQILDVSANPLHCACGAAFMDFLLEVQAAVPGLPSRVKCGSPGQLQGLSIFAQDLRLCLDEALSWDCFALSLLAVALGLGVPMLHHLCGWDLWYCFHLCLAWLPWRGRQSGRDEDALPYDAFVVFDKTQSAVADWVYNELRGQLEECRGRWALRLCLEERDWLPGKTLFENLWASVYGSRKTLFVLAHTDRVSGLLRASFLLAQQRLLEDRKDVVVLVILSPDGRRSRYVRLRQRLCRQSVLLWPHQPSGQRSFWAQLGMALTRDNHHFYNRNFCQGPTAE
Run Description: HEK293-Blue-hTLR-9 cells assay
Assay type: cell-based
Set-up: host or cells: HEK293-Blue-hTLR-9 (HEK293)
Run Conditions: HEK293-Blue-hTLR9 cells, ODN2006 stimulation, 20 hrs, SEAP reporter; read-out: HEK/hTLR9 IC50
Result Type: IC50 (nM)

{"Molecule": "C[C@@H]1CN(c2ccc(C#N)c3ncccc23)C[C@H](CN2CC3(C2)CN(c2ccnc(C4CC4)c2)CCO3)O1 [Example 3]", "Result Type": "IC50", "Numeric Readout": 48}
{"Molecule": "C[C@@H]1CN(c2ccc(C#N)c3ncccc23)C[C@H](CN2CCN(c3ccnc(N)c3)CC2)O1 [Example 19]", "Result Type": "IC50", "Numeric Readout": 62}
{"Molecule": "Cc1cc(N2CC3(CN(C[C@H]4CN(c5ccc(C#N)c6ncccc56)C[C@@H](C)O4)C3)C2)cc(CO)n1 [Example 1]", "Result Type": "IC50", "Numeric Readout": 34}
{"Molecule": "Cc1cc(N2CC[C@@H](NC[C@H]3CN(c4ccc(C#N)c5ncccc45)C[C@@H](C)O3)C2)cc(CO)n1 [Example 28]", "Result Type": "IC50", "Numeric Readout": 57}
{"Molecule": "Cc1cc(N2CCC[C@H](N(C)C[C@H]3CN(c4ccc(C#N)c5ncccc45)C[C@@H](C)O3)C2)cc(CO)n1 [Example 38]", "Result Type": "IC50", "Numeric Readout": 39}
{"Molecule": "Cc1cc(N2CCN(C[C@H]3CN(c4ccc(C#N)c5ncccc45)C[C@@H](C)O3)CC2)cc(CO)n1 [Example 50]", "Result Type": "IC50", "Numeric Readout": 134}
{"Molecule": "Cc1cc(N2CCC23CN(C[C@H]2CN(c4ccc(C#N)c5ncccc45)C[C@@H](C)O2)C3)cc(CO)n1 [Example 12]", "Result Type": "IC50", "Numeric Readout": 49}
{"Molecule": "Cc1cc(N2CCC3(CN(C[C@H]4CN(c5ccc(C#N)c6ncccc56)C[C@@H](C)O4)C3)C2)cc(C)n1 [Example 9]", "Result Type": "IC50", "Numeric Readout": 32}
{"Molecule": "Cc1cc(N2CCN(C[C@H]3CN(c4ccc(C#N)c5ncccc45)C[C@@H](C)O3)[C@H](C)C2)cc(CO)n1 [Example 4B]", "Result Type": "IC50", "Numeric Readout": 145}
{"Molecule": "Cc1cc(NC2CN(C[C@H]3CN(c4ccc(C#N)c5ncccc45)C[C@@H](C)O3)C2)cc(C)n1 [Example 7]", "Result Type": "IC50", "Numeric Readout": 39}

(A) Cc1cc(N2CCC23CN(C[C@H]2CN(c4ccc(C#N)c5ncccc45)C[C@@H](C)O2)C3)ccn1 [Example 15]
(B) Cc1cc(N2CCN(C[C@H]3CN(c4ccc(C#N)c5ncccc45)C[C@@H](C)O3)CC2)cc(N)n1 [Example 40]
Among A and B , which shows a numerically higher IC50 result? Give the label under which the chosen entry appears. A
